Quick list: IC50 per entry.
test_system: HIV-1 RT wild-type enzyme (Human immunodeficiency virus type 1 group M subtype B (isolate HXB2) (HIV-1), UniProt P04585)
experiment_description: HIV-1 reverse transcriptase inhibitory activity (RT polymerase assay)
Type: biochemical
recorded_conditions: HIV-1 RT wild-type enzyme 83 pM; RNA-dependent DNA polymerase activity; read-out: IC50

compound	IC50
N#Cc1cc(Cl)cc(Oc2c(C(F)(F)F)ncn(Cc3cc(-c4cccc(Cl)c4F)c(=O)[nH]n3)c2=O)c1 [Example 43]	9 nM
N#Cc1cc(Cl)cc(Oc2c(C(F)(F)F)ncn(Cc3cc(-c4cccnc4)n[nH]c3=O)c2=O)c1 [Example 124]	6 nM
N#Cc1cc(Cl)cc(Oc2c(C(F)(F)F)ncn(Cc3cc(-c4cc(F)ccc4F)c(=O)[nH]n3)c2=O)c1 [Example 48]	9 nM
N#Cc1cc(Cl)cc(Oc2c(C(F)(F)F)ncn(Cc3cc(-c4ccc(OC(F)F)cc4)n[nH]c3=O)c2=O)c1 [Example 115]	7 nM
N#Cc1cc(Cl)cc(Oc2c(C(F)(F)F)ncn(Cc3cc(-c4ccc(Cl)nc4)c(=O)[nH]n3)c2=O)c1 [Example 86]	6 nM
N#Cc1cc(F)cc(Oc2c(C(F)(F)F)ncn(Cc3ccc(=O)[nH]n3)c2=O)c1 [Example 19]	31 nM
Cc1ncn(Cc2ccc(=O)[nH]n2)c(=O)c1Oc1cc(Cl)cc(C#N)c1 [Example 13]	29 nM
